// data source = PubChem BioAssay (NCI)

system: HCT-15 colon; experiment: NCI tumour cell line growth inhibition, 48 h
# TGI per entry

molecule: COc1ccc(-n2nnc3c(sc4ccccc43)c2=O)cc1
TGI: > 100 µM
//
molecule: COC(=O)c1nc(NN)[nH]c(=O)c1CCCCCc1c(C(=O)OC)[nH]c(NN)cc1=O
TGI: > 100 µM
//
molecule: CC(C)c1cccc(C(C)C)c1NC(=O)C(=O)C(C(=O)c1ccccc1-c1ccccc1)C1OC(=O)c2ccccc21 (stereo not given)
TGI: 44.5 µM

query: Report measured TGI; entry is `COc1cc2nncc(Sc3cnnc4ccccc34)c2cc1OC`
result: 72.2 µM

query: Respond only with TGI recorded for `CSc1ccc(C2=Nn3c(nnc3-c3ccc(F)c(Cl)c3)SC2)cc1`
result: > 100 µM

query: Using known records, supply TGI for `O=C1CS/C(=N/N=C/c2cn(Cc3ccc(Cl)cc3Cl)c3ccccc23)N1`
result: > 100 µM

query: Return the recorded TGI value; entry: `CCOc1snc(C(Cl)(Cl)Cl)c1Cl`
result: > 100 µM

query: Answer with the recorded TGI for the molecule listed here: COC1/C=C/OC2(C)Oc3c(C)c(O)c4c(c3C2=O)C(=O)C=C(NC(=O)/C(C)=C\C=C\C(C)C(OC=O)C(C)C(O)C(C)C(OC(C)=O)C1C)C4=O (stereo not given)
result: 22.7 µM

query: State its TGI: `COc1ccc(OC/C(N=Cc2ccncc2)=N/NC(=O)c2ccncc2)cc1`
result: > 100 µM
